MEASUREMENT_TARGET: Cyclin Dependent Kinase 2/Cyclin E1 (CDK2-cycE1) (Homo sapiens, UniProt P24941)
Construct: purchased ProQinase 0050-0055-1
MEASUREMENT_NOTES: CDK2-cycE1 TR-FRET (LANCE) enzyme assay
Type: biochemical
EXPERIMENTAL_CONTEXT: Table O, fold selectivity, enzymatic CDK1 Ki over CDK2 Ki
REPORTED_PROPERTY: FS CDK1/CDK2

| CHEMICAL_SMILES | REPORTED_PROPERTY | READING |
| --- | --- | --- |
| Cc1nc(C#N)ccc1Nc1cc([C@H]2CC[C@@H](OC(=O)NC(C)C)C2)[nH]n1 | FS CDK1/CDK2 | 110 |
| COc1ncc(Nc2cc([C@H]3CC[C@@H](OC(=O)NC(C)C)C3)[nH]n2)c(C)n1 | FS CDK1/CDK2 | 20 |
| Cn1cnc(Nc2cc([C@H]3CC[C@@H](OC(=O)NC45CC(C4)C5)C3)[nH]n2)cc1=O | FS CDK1/CDK2 | 34 |
| CNC(=O)c1ccnc(Nc2cc([C@H]3CC[C@@H](OC(=O)NC(C)(C)C)C3)[nH]n2)c1 | FS CDK1/CDK2 | 21 |

###

Each entry below lists one item and its recorded Ki value.
MEASUREMENT_TARGET: Cyclin Dependent Kinase 1/Cyclin A2 (CDK1-cycA2) (Homo sapiens, UniProt P06493)
Construct: purchased ProQinase 0134-0054-1
Sequence (P06493 whole entry): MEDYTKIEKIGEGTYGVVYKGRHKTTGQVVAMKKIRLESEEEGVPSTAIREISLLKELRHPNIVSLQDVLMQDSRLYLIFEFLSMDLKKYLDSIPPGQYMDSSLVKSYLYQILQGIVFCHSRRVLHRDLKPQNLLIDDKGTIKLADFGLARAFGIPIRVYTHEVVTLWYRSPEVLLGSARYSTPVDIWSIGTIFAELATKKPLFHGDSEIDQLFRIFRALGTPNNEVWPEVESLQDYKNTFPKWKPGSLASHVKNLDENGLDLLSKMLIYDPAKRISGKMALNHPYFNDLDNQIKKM
Sequence (P20248 whole entry partner): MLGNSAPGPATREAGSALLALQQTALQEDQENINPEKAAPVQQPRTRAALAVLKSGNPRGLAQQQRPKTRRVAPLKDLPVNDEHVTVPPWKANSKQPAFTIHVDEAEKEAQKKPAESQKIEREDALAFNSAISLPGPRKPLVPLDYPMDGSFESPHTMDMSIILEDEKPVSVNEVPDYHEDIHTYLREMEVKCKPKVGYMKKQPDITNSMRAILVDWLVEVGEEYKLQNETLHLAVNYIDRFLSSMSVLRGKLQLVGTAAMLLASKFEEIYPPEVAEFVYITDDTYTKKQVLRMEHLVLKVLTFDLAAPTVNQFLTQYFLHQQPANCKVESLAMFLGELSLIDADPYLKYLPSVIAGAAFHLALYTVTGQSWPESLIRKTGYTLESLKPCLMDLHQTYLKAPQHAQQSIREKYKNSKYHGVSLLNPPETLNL
MEASUREMENT_NOTES: CDK1-cycA2 TR-FRET (Lance) enzyme assay
Assay type: biochemical
EXPERIMENTAL_CONTEXT: Table O, enzymatic assay
REPORTED_PROPERTY: Ki (nM)

| COMPOUND | READING |
| --- | --- |
| CC(C)NC(=O)O[C@@H]1CC[C@H](c2cc(Nc3ncnc(N(C)C)n3)n[nH]2)C1 [Example 2Q] | 670 |
| CC(C)NC(=O)O[C@@H]1CC[C@H](c2cc(Nc3ccn(C)c(=O)c3)n[nH]2)C1 [Example 2AA] | 440 |
| CC1(NC(=O)O[C@@H]2CC[C@H](c3cc(Nc4cccnn4)n[nH]3)C2)COC1 [Example 3G] | 240 |
| Cc1cc(Nc2cc([C@H]3CC[C@@H](OC(=O)NC45CC(C4)C5)C3)[nH]n2)c(C)nn1 [Example 9D] | 340 |
| Cc1cncc(Nc2cc([C@H]3CC[C@@H](OC(=O)NC(C)C)C3)[nH]n2)n1 [Example 2M] | 6.3 |
| CC(C)NC(=O)O[C@@H]1CC[C@H](c2cc(Nc3ccc(-n4ccnc4)cn3)n[nH]2)C1 [Example 2EE] | 290 |
| CC(C)NC(=O)O[C@@H]1CC[C@H](c2cc(Nc3cncnc3)n[nH]2)C1 [Example 2B] | 160 |
| Cc1cc(Nc2cc([C@H]3CC[C@@H](OC(=O)NC45CC(C4)C5)C3)[nH]n2)ccn1 [Example 9] | 61 |
| CNC(=O)c1ncc(Nc2cc([C@H]3CC[C@@H](OC(=O)NC45CC(C4)C5)C3)[nH]n2)c(C)n1 [Example 9F] | 80 |
| Cc1ncccc1Nc1cc([C@H]2CC[C@@H](OC(=O)N[C@H]3CCN(C)C3)C2)[nH]n1 [Example 7C] | 3500 |

###

MEASUREMENT_TARGET: Cyclin Dependent Kinase 2/Cyclin E1 (CDK2-cycE1) (Homo sapiens, UniProt P24941)
Construct: purchased ProQinase 0050-0055-1
MEASUREMENT_NOTES: CDK2-cycE1 TR-FRET (LANCE) enzyme assay
Format: biochemical
EXPERIMENTAL_CONTEXT: Table O, fold selectivity, enzymatic CDK4 Ki over CDK2 Ki
Experimental: Cyclin Dependent Kinase 1/Cyclin A2 (CDK1-cycA2), Cyclin Dependent Kinase 2/Cyclin E1 (CDK2-cycE1), Cyclin Dependent Kinase 4/Cyclin D3 (CDK4-cycD3) and Cyclin Dependent Kinase 6/Cyclin D3 (CDK6-cycD3) enzyme assays were carried out as described below. […] An Echo acoustic dispenser is used to create dose responses of compound dissolved in DMSO into a 384-well microplate. […] Signal is a ratio of the Acceptor and Donor fluorescence. Inhibition constants are calculated via the Morrison equation. […]
REPORTED_PROPERTY: FS CDK4/CDK2

| MOLECULE | QUALIFIER_SIGN | READING |
| --- | --- | --- |
| Cn1nc(Nc2cc([C@H]3CC[C@@H](OC(=O)NC45CC(C4)C5)C3)[nH]n2)ccc1=O [Example 6] | > | 320 |
| CC(C)NC(=O)O[C@@H]1CC[C@H](c2cc(Nc3ccc(-n4cccn4)cn3)n[nH]2)C1 [Example 2DD] | = | 27 |
| CNc1ncc(Nc2cc([C@H]3CC[C@@H](OC(=O)NC(C)C)C3)[nH]n2)cn1 [Example 2GG] | = | 31 |
| CC(C)NC(=O)O[C@@H]1CC[C@H](c2cc(Nc3cccn(C)c3=O)n[nH]2)C1 [Example 2BB] | = | 6.3 |
| CNC(=O)c1cc(C)c(Nc2cc([C@H]3CC[C@@H](OC(=O)NC45CC(C4)C5)C3)[nH]n2)cn1 [Example 9C] | = | 200 |
| CC(C)NC(=O)O[C@@H]1CC[C@H](c2cc(Nc3ncnc(N(C)C)n3)n[nH]2)C1 [Example 2Q] | = | 37 |
| COc1ncc(Nc2cc([C@H]3CC[C@@H](OC(=O)NC(C)C)C3)[nH]n2)cn1 [Example 2FF] | = | 68 |
| CNc1nccc(Nc2cc([C@H]3CC[C@@H](OC(=O)NC(C)C)C3)[nH]n2)n1 [Example 2H] | = | 64 |
| COc1cc(=O)n(C)cc1Nc1cc([C@H]2CC[C@@H](OC(=O)NC34CC(C3)C4)C2)[nH]n1 [Example 10] | = | 385 |
| CN(C)Cc1ccc(Nc2cc([C@H]3CC[C@@H](OC(=O)NC45CC(C4)C5)C3)[nH]n2)cn1 [Example 9J] | = | 8.9 |
| Cc1ncccc1Nc1cc([C@H]2CC[C@@H](OC(=O)NC3(C)COC3)C2)[nH]n1 [Example 8] | = | 213 |
| CC(C)(C)NC(=O)O[C@@H]1CC[C@H](c2cc(Nc3ncccn3)n[nH]2)C1 [Example 4J] | = | 4.4 |
| Cn1c(Nc2cc([C@H]3CC[C@@H](OC(=O)NC(C)(C)C)C3)[nH]n2)ccnc1=O [Example 8A] | = | 185 |
| Cc1ncccc1Nc1cc([C@H]2CC[C@@H](OC(=O)N[C@@H]3CCN(C)C3)C2)[nH]n1 [Example 7B] | = | 22 |
| Cc1cc(=O)n(C)cc1Nc1cc([C@H]2CC[C@@H](OC(=O)NC(C)C)C2)[nH]n1 [Example 2S] | = | 13 |
| Cc1nnccc1Nc1cc([C@H]2CC[C@@H](OC(=O)NC(C)(C)C)C2)[nH]n1 [Example 11A] | = | 444 |
| Cc1nc(S(C)(=O)=O)ccc1Nc1cc([C@H]2CC[C@@H](OC(=O)NC(C)(C)C)C2)[nH]n1 [Example 4L] | = | 162 |
| Cc1nccnc1Nc1cc([C@H]2CC[C@@H](OC(=O)NC(C)C)C2)[nH]n1 [Example 2T] | = | 170 |
| CC(C)NC(=O)O[C@@H]1CC[C@H](c2cc(Nc3ccc(=O)n(C)n3)n[nH]2)C1 [Example 2] | = | 550 |
| CC(C)NC(=O)O[C@@H]1CC[C@H](c2cc(Nc3cncnc3)n[nH]2)C1 [Example 2B] | = | 120 |
| Cc1cncc(Nc2cc([C@H]3CC[C@@H](OC(=O)NC(C)C)C3)[nH]n2)c1 [Example 2K] | = | 110 |
| Cc1nccnc1Nc1cc([C@H]2CC[C@@H](OC(=O)NC3(C)COC3)C2)[nH]n1 [Example 8B] | = | 212 |
| Cc1ncncc1Nc1cc([C@H]2CC[C@@H](OC(=O)NC(C)C)C2)[nH]n1 [Example 2U] | = | 120 |
| CC(C)(C)NC(=O)O[C@@H]1CC[C@H](c2cc(Nc3ccnc(CO)c3)n[nH]2)C1 [Example 10C] | = | 28 |

###

Below is a list of entries, each paired with its recorded FS CDK4/CDK2 value.
MEASUREMENT_TARGET: Cyclin Dependent Kinase 4/Cyclin D3 (CDK4-cycD3) (Homo sapiens, UniProt P11802)
Construct: purchased Carna Biosciences 04-105
Sequence (P11802 whole entry): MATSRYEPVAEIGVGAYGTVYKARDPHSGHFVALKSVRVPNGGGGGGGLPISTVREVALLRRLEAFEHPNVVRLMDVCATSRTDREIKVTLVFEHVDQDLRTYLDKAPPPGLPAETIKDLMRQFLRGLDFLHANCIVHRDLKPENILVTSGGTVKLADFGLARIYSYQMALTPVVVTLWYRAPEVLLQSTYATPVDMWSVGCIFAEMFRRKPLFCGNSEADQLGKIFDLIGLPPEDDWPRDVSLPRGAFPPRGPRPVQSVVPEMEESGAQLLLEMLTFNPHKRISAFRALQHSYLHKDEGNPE
Sequence (P30281 whole entry partner): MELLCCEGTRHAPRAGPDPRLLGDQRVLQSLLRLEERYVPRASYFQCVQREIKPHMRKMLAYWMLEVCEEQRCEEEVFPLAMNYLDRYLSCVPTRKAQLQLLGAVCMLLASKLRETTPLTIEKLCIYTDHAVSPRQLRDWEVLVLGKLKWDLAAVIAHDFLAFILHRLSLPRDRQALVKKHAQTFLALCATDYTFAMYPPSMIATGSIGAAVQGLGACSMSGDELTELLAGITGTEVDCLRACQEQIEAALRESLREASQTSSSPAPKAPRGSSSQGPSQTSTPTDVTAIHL
MEASUREMENT_NOTES: CDK4-cycD3 TR-FRET (LANCE) enzyme assay
Format: biochemical
EXPERIMENTAL_CONTEXT: Table R, fold selectivity, enzymatic Ki ratio

| CHEMICAL_SMILES | QUALIFIER_SIGN | FS CDK4/CDK2 |
| --- | --- | --- |
| CC(C)(C)NC(=O)O[C@@H]1CC[C@H](c2cc(Nc3ncccn3)n[nH]2)C1 | = | 4.4 |
| Cn1nc(Nc2cc([C@H]3CC[C@@H](OC(=O)NC(C)(C)C)C3)[nH]n2)ccc1=O | > | 584 |
| CNC(=O)c1ccc(Nc2cc([C@H]3CC[C@@H](OC(=O)NC(C)(C)C)C3)[nH]n2)nc1 | = | 53 |

meta.source: patent US20240425478A1
